Overview of reported MIC across a group of molecules:
Tested on: Pseudomonas aeruginosa
Experiment: Antibacterial activity against Pseudomonas aeruginosa GN315 by agar dilution method
Format: functional
Conditions: Pseudomonas aeruginosa; read-out: MIC

CN(C)[C@H]1[C@@H](O[C@H]2O[C@H](CO)[C@@H](O)[C@H](N)[C@H]2O)[C@H](NC(=O)[C@@H](O)CCN)C[C@H](N)[C@H]1O[C@H]1O[C@H](CN)CC[C@H]1N : > 32 µg/mL
CN[C@@H]1[C@@H](O)[C@@H](O[C@@H]2[C@H](O)[C@H](O[C@H]3O[C@H](CN)CC[C@H]3N)[C@@H](N)C[C@H]2NC(=O)[C@@H](O)CCN)O[C@H](CO)[C@H]1O : 32 µg/mL
NCC[C@H](O)C(=O)N[C@@H]1C[C@H](N)[C@@H](O[C@H]2O[C@H](CN)CC[C@H]2N)[C@@H](NCc2ccccc2)[C@H]1O[C@H]1O[C@H](CO)[C@@H](O)[C@H](N)[C@H]1O : 128 µg/mL
NCCN[C@H]1[C@@H](O[C@H]2O[C@H](CO)[C@@H](O)[C@H](N)[C@H]2O)[C@H](NC(=O)[C@@H](O)CCN)C[C@H](N)[C@H]1O[C@H]1O[C@H](CN)CC[C@H]1N : 64 µg/mL

Here is the next item to consider.
Given item NCC[C@H](O)C(=O)N[C@@H]1C[C@H](N)[C@@H](O[C@H]2O[C@H](CN)CC[C@H]2N)[C@@H](Cl)[C@H]1O[C@H]1O[C@H](CO)[C@@H](O)[C@H](N)[C@H]1O , the value recorded as its MIC is 50 µg/mL

* * *

Overview of reported MIC across a group of compounds:
Tested on: Staphylococcus aureus
Assay: Antibacterial activity against methicillin-resistant Staphylococcus aureus MSC03571 by agar dilution method
Assay type: functional
Details: Staphylococcus aureus; read-out: MIC

Given item CN[C@H]1[C@@H](O[C@H]2O[C@H](CO)[C@@H](O)[C@H](N)[C@H]2O)[C@H](NC(=O)[C@@H](O)CCN)C[C@H](N)[C@H]1O[C@H]1O[C@H](CN)CC[C@H]1N , the value recorded as its MIC is 16 µg/mL

Given item NCCN[C@H]1[C@@H](O[C@H]2O[C@H](CO)[C@@H](O)[C@H](N)[C@H]2O)[C@H](NC(=O)[C@@H](O)CCN)C[C@H](N)[C@H]1O[C@H]1O[C@H](CN)CC[C@H]1N , the value recorded as its MIC is 4 µg/mL

Given item CN(C)[C@H]1[C@@H](O[C@H]2O[C@H](CO)[C@@H](O)[C@H](N)[C@H]2O)[C@H](NC(=O)[C@@H](O)CCN)C[C@H](N)[C@H]1O[C@H]1O[C@H](CN)CC[C@H]1N , the value recorded as its MIC is > 64 µg/mL

Given item NCC[C@H](O)C(=O)N[C@@H]1C[C@H](N)[C@@H](O[C@H]2O[C@H](CN)CC[C@H]2N)[C@@H](NCc2ccccc2)[C@H]1O[C@H]1O[C@H](CO)[C@@H](O)[C@H](N)[C@H]1O , the value recorded as its MIC is 32 µg/mL

* * *

Overview of reported MIC across a group of compounds:
System: Staphylococcus aureus
Test: Antibacterial activity against methicillin-resistant Staphylococcus aureus MSC03571 by agar dilution method
Assay type: functional
Settings: Staphylococcus aureus; read-out: MIC
Expressed in µg/mL, but write only the number.

CN[C@@H]1[C@@H](O)[C@@H](O[C@@H]2[C@H](O)[C@H](O[C@H]3O[C@H](CN)CC[C@H]3N)[C@@H](N)C[C@H]2NC(=O)[C@@H](O)CCN)O[C@H](CO)[C@H]1O : 16
NCC[C@H](O)C(=O)N[C@@H]1C[C@H](N)[C@@H](O[C@H]2O[C@H](CN)CC[C@H]2N)[C@@H](Cl)[C@H]1O[C@H]1O[C@H](CO)[C@@H](O)[C@H](N)[C@H]1O : 6.25

Here is the next item to consider.
Given item NCC[C@H](O)C(=O)N[C@@H]1C[C@H](N)[C@@H](O[C@H]2O[C@H](CN)CC[C@H]2N)[C@@H](N)[C@H]1O[C@H]1O[C@H](CO)[C@@H](O)[C@H](N)[C@H]1O , the value recorded as its MIC is 4

Hello, the source for this data is ChEMBL document CHEMBL1148888, in case you need it.
